target: ERRβ (Homo sapiens, UniProt O95718); assay: Cell-based co-transfection ERR responsive luciferase reporter assay, ERRβ
Sequence (O95718 whole entry, species assumed): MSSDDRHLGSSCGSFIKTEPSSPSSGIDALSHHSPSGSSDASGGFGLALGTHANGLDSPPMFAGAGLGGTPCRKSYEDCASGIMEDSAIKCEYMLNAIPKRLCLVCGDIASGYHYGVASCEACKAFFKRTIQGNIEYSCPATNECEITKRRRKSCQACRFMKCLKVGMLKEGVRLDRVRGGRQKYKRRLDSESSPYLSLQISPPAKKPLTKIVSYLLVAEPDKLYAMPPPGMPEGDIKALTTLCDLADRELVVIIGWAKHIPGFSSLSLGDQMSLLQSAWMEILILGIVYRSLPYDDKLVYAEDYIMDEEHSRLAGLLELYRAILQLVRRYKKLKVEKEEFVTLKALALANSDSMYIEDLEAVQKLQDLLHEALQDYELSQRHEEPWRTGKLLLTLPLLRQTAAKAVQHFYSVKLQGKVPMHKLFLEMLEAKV
So basically: is EC50 under 800 nM? Then criterion met. Not under? Then criterion not met.

Sample answers from the record:
{"columns": ["compound", "class label"],
 "data": [
  ["Cc1ccc(C(=O)N/N=C/c2ccccc2O)cc1 [Compound 33]", "criterion met"],
  ["O=C(N/N=C/c1cccs1)c1ccccc1 [Compound 42]", "criterion not met"]
]}

Does the reported EC50 of Cc1ccc(C(=O)N/N=C/c2ccccc2)cc1 [Compound 24] stay below 800 nM?
criterion met

Also need O=C(N/N=C/c1ccccc1O)c1ccccc1O [Compound 27] , thanks.
criterion met

Also need Cc1ccccc1C(=O)N/N=C/c1ccccc1O [Compound 29] , thanks.
criterion met
